System: Machupo mammarenavirus
Assay: Antiviral activity against pseudotyped Machupo virus
Format: functional, organism-based
Details: Mammarenavirus machupoense
// returns false unless EC50 is strictly below 500 pM, in which case true

// known answers, use as guide
1. CC(C)Oc1ccc(-c2ccn3cnc(-c4ccc(OC(C)C)cc4)c3c2)cc1
false
2. CC(C)Oc1ccc(-c2ccc3cnc(-c4ccc(OC(C)C)cc4)n3c2)cc1
false
3. CC(C)Oc1ccc(-c2ccc3ccn(-c4ccc(OC(C)C)cc4)c3c2)cc1
false

hey, is EC50 for Cc1cc2ncn(-c3ccc(OC(C)C)cc3)c2cc1-c1ccc(OC(C)C)cc1 lower than 500 pM or not?
true

hey, is EC50 for Cc1c(-c2ccc(OC(C)C)cc2)ccc2ncc(-c3ccc(OC(C)C)cc3)n12 lower than 500 pM or not?
true

hey, is EC50 for Cc1cc2nnn(-c3ccc(OC(C)C)cc3)c2cc1-c1ccc(OC(C)C)cc1 lower than 500 pM or not?
false

hey, is EC50 for CC(C)Oc1ccc(-c2ccc3cnn(-c4ccc(OC(C)C)cc4)c3c2)cc1 lower than 500 pM or not?
false

hey, is EC50 for CC(C)Oc1ccc(-c2cnc3ccc(-c4ccc(OCCN5CCOCC5)cc4)cn23)cc1 lower than 500 pM or not?
false

----------
Listed below: pEC50 values for each entry.
Test system: Machupo mammarenavirus
Assay: Antiviral activity against pseudotyped Machupo virus
Type: functional, organism-based
Details: Mammarenavirus machupoense
Here pEC50 is given on a logarithmic scale as minus log10 of the concentration in mol/L.

1. Cc1cc2ncc(-c3ccc(OC(C)(C)C)cc3)n2cc1-c1ccc(OC(C)C)cc1
9.77

For the next question, use this compound.
What value of pEC50 has been reported for the following compound? Cc1cc2ncn(-c3ccc(OC(C)(C)C)cc3)c2cc1-c1ccc(OC(C)(C)O)cc1
9.92
